- tgt: TREM2 extracellular domain (ECD) (residues 19-131, C-terminally biotinylated, deglycosylated or glycosylated) (Homo sapiens, UniProt Q9NZC2)
- Sequence (Q9NZC2 19-131): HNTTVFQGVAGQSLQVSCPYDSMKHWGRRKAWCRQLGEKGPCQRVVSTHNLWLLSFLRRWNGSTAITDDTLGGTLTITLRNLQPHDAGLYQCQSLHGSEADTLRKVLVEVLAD
- assay protocol: biochemical;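 further: Bio-layer interferometry in 50 mM HEPES pH 7.5 with 150 mM NaCl and 0.1% Tween, double-referenced with blank wells and unrelated-protein sensors, equilibrium response fitted versus concentration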
- applied conditions: Human BLI (Kd; nM) (deglycosylated), Table 4B; deglycosylated human TREM2 ECD; steady-state KD, 25° C.
*1 amine or outer side, *2 acyl side, *3 side chain or, on linkers, in order; H or OH if unused. Where a SMILES comes first, the peptide text is derived from it. Bridges are numbered along the chain shown (N, C = ends). [ ]: non-standard residue; d: D form. TATA = O=C(CC[*:1])N1CN(C(=O)CC[*:2])CN(C(=O)CC[*:3])C1; 1Nal = N[C@@H](Cc1cccc2ccccc12)C(=O)O
Give measured Kd for each item. Keep answers brief.
Please append the unit to your numeric answer.

Requested read-out: Kd. Entry: CC(=O)N[C@H]1CSCCC(=O)N2CN3CN(C2)C(=O)CCSC[C@H](NC(=O)[C@H](Cc2ccc(O)cc2)NC(=O)[C@H](CCC(=O)O)NC(=O)[C@H](CO)NC1=O)C(=O)N[C@@H](Cc1ccccc1)C(=O)N[C@@H](Cc1c[nH]c2ccccc12)C(=O)N1CCC[C@H]1C(=O)N[C@@H](Cc1ccccc1)C(=O)N[C@@H](CCC(N)=O)C(=O)N[C@@H](Cc1ccc(O)cc1)C(=O)N[C@H](C(N)=O)CSCCC3=O [BCY20220, Ac-(SEQ ID NO: 23)] (Ac-CSEYCFWPFQYC-NH2; linker 1-5-12 via TATA)
1300 nM

Requested read-out: Kd. Entry: CC(=O)N[C@H]1CSCCC(=O)N2CN3CN(C2)C(=O)CCSC[C@H](NC(=O)[C@H](Cc2ccc(O)cc2)NC(=O)[C@H](CCC(=O)O)NC(=O)[C@H](CO)NC1=O)C(=O)N[C@@H](Cc1ccccc1)C(=O)N[C@@H](Cc1c[nH]c2ccccc12)C(=O)N1CC[C@H]1C(=O)N[C@@H](Cc1ccccc1)C(=O)N[C@@H](Cc1ccc(O)cc1)C(=O)N[C@@H](Cc1c[nH]cn1)C(=O)N[C@H](C(N)=O)CSCCC3=O [BCY20068, Ac-(SEQ ID NO: 64)]
2540 nM

Requested read-out: Kd. Entry: CC(=O)N[C@H]1CSCCC(=O)N2CN3CN(C2)C(=O)CCSC[C@H](NC(=O)[C@H](Cc2ccc(O)cc2)NC(=O)[C@H](CCC(=O)O)NC(=O)[C@H](CO)NC1=O)C(=O)N[C@@H](Cc1cccc2ccccc12)C(=O)N[C@@H](Cc1c[nH]c2ccccc12)C(=O)N1CCC[C@H]1C(=O)N[C@@H](Cc1ccccc1)C(=O)N[C@@H](Cc1ccc(O)cc1)C(=O)N[C@@H](Cc1c[nH]cn1)C(=O)N[C@H](C(N)=O)CSCCC3=O [BCY20054, Ac-(SEQ ID NO: 49)] (Ac-CSEYC[1Nal]WPFYHC-NH2; linker 1-5-12 via TATA)
2540 nM

Requested read-out: Kd. Entry: CC(=O)N[C@H]1CSCCC(=O)N2CN3CN(C2)C(=O)CCSC[C@H](NC(=O)[C@H](Cc2ccc(O)cc2)NC(=O)[C@H](CCC(=O)O)NC(=O)[C@H](CO)NC1=O)C(=O)N[C@@H](Cc1ccccc1)C(=O)N[C@@H](Cc1c[nH]c2ccccc12)C(=O)N1CCC[C@H]1C(=O)N[C@@H](Cc1ccccc1)C(=O)N[C@@H](Cc1ccc(O)cc1)C(=O)N[C@@H](CC(N)=O)C(=O)N[C@H](C(N)=O)CSCCC3=O [BCY20083, Ac-(SEQ ID NO: 78)] (Ac-CSEYCFWPFYNC-NH2; linker 1-5-12 via TATA)
1830 nM
